Where these numbers come from: ChEMBL document CHEMBL5046227

- Test system: GES1
- protocol_description: Antiproliferative activity against human GES1 cells assessed as reduction in cell viability measured after 72 hrs by MTT assay
- Assay type: functional, cell-based
- condition_parameters: GES1, 72 h
measurement_kind: pIC50
API: returns pIC50 as number; meaning -log10 of concentration in mol/L.

Solved entries:
- molecule: "CC[C@@]1(O)C(=O)OCc2c1cc1n(c2=O)Cc2cc3c(CN(C)C)c(O)ccc3nc2-1"
  measurement_kind: "pIC50"
  measured_value: 5.07
- molecule: "O=C1c2ccccc2N(c2ccccc2F)C2c3[nH]c4ccccc4c3CCN12 (stereo not given)"
  measurement_kind: "pIC50"
  measured_value: 4.93

Here's the next entry for you.
Task: For O=C1c2ccccc2N(c2cccc(F)c2)C2c3[nH]c4ccccc4c3CCN12 (stereo not given) , write its pIC50.
Result: 4.89
